B1: HDV Ribozyme (parent)
chain: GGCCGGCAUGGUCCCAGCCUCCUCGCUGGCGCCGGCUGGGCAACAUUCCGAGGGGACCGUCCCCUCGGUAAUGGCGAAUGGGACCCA

- Variants of: B1
- Experimental protocol: self-cleavage, relative activity (ratio to wild type); higher = more cleavage; co-transcriptional

Mutation code	self-cleavage
G11U C36G	0.0615
C36A C57G	0.0898
C41U G67A	0.439
C62G G80A	0.185
G17A G54U	0.554
G5C C64U	0.332
C15A G52A	0.708
A43G G80A	0.115
U9G G81C	0.443
U37C U65A	0.929
G5C U65C	0.222
U23G C41A	0.465
C15U A45U	0.831
G31U G80U	0.0675
G10A C19A	0.0489
C21G U23A	0.0536
C30A C44G	0.0831
C7U G68A	0.969
G35A G52U	0.513
G55A G80A	0.369
G76U C84A	0.906
A77G G80U	0.244
U12C U37G	0.332
G38U C64U	0.25
A51G G73A	0.864
A51U C62G	0.131
G55A A87C	1.1
C3G C85A	0.858
G35A C66G	0.655
G50C G73U	0.246
G5A G6C	0.0536
G6C C13A	0
C13A A70C	0.285
C41U G52A	1.06
G40U G55A	0.722
A42G A56C	0.54
U60A A77C	0.305
C3U U60C	0.943
C19U G40C	0.0923
G54C U79A	0.755
C13G U27A	0.391
C22A G82C	0
U47A U60G	1.02
G2U G29A	0.0178
C15U A87G	1.05
U20G G34C	0.138
